Data credit: the DeepSol protein solubility set

# assay.text: soluble on expression in E. coli; label from the status in PepcDB or PDB records
readout.name: soluble on expression in E. coli

sequence.code: MGSDKIHHHHHHMMYTNDNRIVMTLDAGGTNFVFSAIQGGKEIADPVVLPACADCLDKCLGNLVEGFKAIQAGLPEAPVAISFAFPGPADYQAGIIGDLPNFPSFRGGVALGPFLEDIFGIPVFINNDGSLFAYGEALTGVLPEINRRLREAGSTKRYKNLLGVTLGTGFGAGVVIDGELLRGDNAAGGYVWCLRNKKYPEYIVEESVSIRAVMRVYAERSGDAGARTPKEIFEIAEGIRPGNREAAIAAFEELGEMAGDALASAITLIDGLIVIGGGLSGASKYILPVLLKEMNAQTGMMDGARFGRLQKEVYDLDEEKSFAGFARGEAVEVLVPGTNRKVGYDPCKRIGVTFSKQGANRSIAMGAYVFALNHLSK
readout.name: soluble on expression in E. coli
result: not soluble
--
sequence.code: MEQQQRYISVLDIGTSKVLALIGEVQDDDKINIVGLGQAPSRGLRAGMVTNIDATVQAIRQAVNDAELMADTKITHVTTGIAGNHIRSLNSQGVVKIKDGEVTQADIDRAIETAKAINIPPDQKILDAVVQDYIIDTQLGVREPIGMSGVRLDTRVHIITGASTAVQNVQKCIERCGLKSD
readout.name: soluble on expression in E. coli
result: not soluble

----------
# assay.text: soluble on expression in E. coli; label from the status in PepcDB or PDB records

sequence.code: INLSTLPEHLTYLVRSSRVLQELHESEAQNRALLNAIPDMMLHVCREGTILDFRAGNGCAYAAFGGNLRGRTIADLLPPGAAAQFMAQVGHALATGTMMVCEYELEGPGGLNTHEARIVANG
soluble on expression in E. coli: not soluble
//
sequence.code: MGSDKIHHHHHHMIHRQTNQLNTDNLEKKQRQYKYAFNLAEIDSESFPMHIFRKYAKDVFEDHQLSLLQRGERQGEYILRQQISHYLFNSRGVTCHPNQIIVGSSTSQLLDMITNLLKKEEFIIEQPSYPPIKHTLDKKGISYIQVPVEQNGIQIDPILNTNNNILYITPSHQFPTGYVTNLKKRTQLINWSHQAKQRYIIEDDYDSEFRYFGKPIPALQSLDTKGKVIYISTFSKSLYPSCRIAYIVLPQNLMHKYNNQKYKEGNTVPVHVQHMIAQFMISGKFERHLNKMRKIYRDKLDYILKRLKPYNTQIKIEGALTGMHFTITVNNGLSMKQCLKNAKKNNLKLKPYHYENYSKVYPKFILGFGGIKKEELEDHVNALIHSLVI
soluble on expression in E. coli: not soluble
//
sequence.code: MAGILHNEGVKVAITTDHPVTRIQDLLICAGLAAKEGLGIEEGLKAITINPAEICNVANRVGSIEVNKDADIAIFDGNPMETFTKTMYTIINGEIVYSLKDLEHHHHHH
soluble on expression in E. coli: not soluble
//
sequence.code: DIVEAQPSHPDKLLEVPLGRDISGMVQTADLSKMPHLLIAGSTGSGKSVAINGIITGILMQAKPHEVKLMMIDPKMVELNVYNGIPHLLTPVVTNPRKAAQALQKVVQEMEFRYEKFAATGVRNITGYNQLIQQKNAEDGENRPILPFIVVIVDELADLMMVASNEVEDAIIRLAQMARAAGIHMILATQRPSV
soluble on expression in E. coli: not soluble
//
sequence.code: MSLSCPRCGWVHYINPLPVAIALTVNRNNELLMIRRAHEPAFNEWALPGGFLEAGERPEEGCLRELFEETSLEGTIDKLIGVWHLESGLYGSLIAVAYRVIAAHERISINHEVFEAGFYRPDNMPPVRIPLHRQIIAESRWPERDLSLTEGHHHHHH
soluble on expression in E. coli: not soluble
//
sequence.code: MPTALIADDEPNLSAELAERLAELWPELEIVAMPRNGVDTLAALNAARPDIAFLDIRMPGIDGLKLASLVPDVHVVFVTAYDEYAVEAFDRSAIDYLLKPVTDERLLRCIAKLQRGGFAPPGAQALSDARMPKEPTLIRWLTVGLKDTTRLVSVDDVLYFQALDKYTEVVTAGERHVIRTPLKELLQRLDQDRFAQVHRGVIVAYAAIDRIERDLLGRLCIHLHGHRDVLPVSRAYAGLFKHM
soluble on expression in E. coli: not soluble
//
sequence.code: MGSDKIHHHHHHMTAPSPEAWLYMLLQTARELELPWLDLIVDQAEMGARWQSRVGALYPPRMLLQDTPHAEAADEGPVLVRLDANQPQTRLLKLLRQWQGQPRVLALFSGWDYDQLAERLTLCMQASWDKGLQQGVLRFHDPRLFAAVVDALDEPRRQLLLEPAVQWHWLDRDGHARMLDATALQSLPPLEWVHDTLTLEQPHIDALACWHLAETWRQNHLLVPQLYGLDSEEELVRRLAQAHQAADKAKLWSEAERIPVVERMLRENA
soluble on expression in E. coli: not soluble
//
sequence.code: MEQYYGTGRRKEAVARVFLRPGNGKVTVNGQDFNEYFQGLVRAVAALEPLRAVDALGHFDAYITVRGGGKSGQIDAIKLGIARALVQYNPDYRAKLKPLGFLTRDARVVERKKYGKHKARRAPQYSKR
soluble on expression in E. coli: soluble
//
sequence.code: MGSDKIHHHHHHMQDLNDLYYFVQVVKHGGFAPAGRALGIPKSKLSRRITQLEERLDTRLIHRSTRRFSVTELGQAYYRHSVAMLVEAEAAEELIQRHHAEPQGTVRLSCSPSVLHYLITPLLVRFMARCPKVEVQVEATSRRVDVIKEGFDLAIRVRFPPLEDSDLTMKVLASSPQRLMAAPSLFAERPRPRSPADLVELPSLDFEQYDHRHCWDLVGPNGASAQVPHWPRLVTDSAETLHAAALEGLGVVKLGLLVGARDIQEGRLIDVLPGWEPRGGILHAAFPSRRGLLPAVRALLDFLDEQIADEDFDTQEALINSSPRG
soluble on expression in E. coli: not soluble
//
sequence.code: MQNAILLVSCPDRKGLVKEISSFIADNGGNIVSFDQHIDEQTKTFLARVEWSLEDFKIPREKIENEFKKVAQKFSMNFQISFSDYVKKVAIFVSKQEHCFYDLMHRFYSGELKGEVKLVISNHEKARKTAEFFGVPFYHIPKTKENKLEAEKRELELLKEYGVELVVLARYMQILSPKFVKEYENKIINIHHSFLPAFPGAKPYERAFGKGVKIIGATAHYVTEELDEGPIIEQDVVRVSHKDSLEDFIRKGKDIEKVVLARAVKWHLEDKILVYNGKTVVFE
soluble on expression in E. coli: soluble
//
sequence.code: RRVADEIVISHPELADEVDTVCNKIQAGKPMPESLRELVVRTGLEELMGLVSMLSHASRIGGSLVNSLREYTEDYRDKRQQAAEEIAAKIPVK
soluble on expression in E. coli: not soluble
//
sequence.code: MKKMLLATALALLITGCAQQTFTVQNKQTAVAPKETITHHFFVSGIGQKKTVDAAKICGGAENVVKTETQQTFVNGLLGFITLGIYTPLEARVYCSK
soluble on expression in E. coli: soluble
//
sequence.code: MGSDKIHHHHHHMKKKIIHTLVYNYEIPVSLEEHLICLKPRSNSFQELSNFDLQIFPSPYSIFPLLSDNGDDIFKLLFTGSTNSLKIKTESDIETNIHPDLYQLKNDYDLSLPLKIESNDSLIGFIKGWFPNGQHDPAAIRIAQEALAGINNNVLDFLYHLIELIKDRVKYTPRHIGPAWTSGRTLSERVGSCRDLAILLMETCRCVGIPSRFVSGYQFMDQAPDKYELHAWTEVYIPGFGWRGFDPSGCGLINHNYVALASSSKSELVAPLRGSFVGPSNLKSELEWKIDIT
soluble on expression in E. coli: not soluble

----------
# assay.text: soluble on expression in E. coli; label from the status in PepcDB or PDB records
readout.name: soluble on expression in E. coli

sequence.code: MGSDKIHHHHHHMEKRQSIKDIEANGDVRGLFLLGAATLNQARNGPFWRLELRDATGTMEAKIWSPQSQAYPDLAPGQIVDLEGRSGTYRDRVEVTVERLRTLGEAEQASLDISQFLPASERPAAEMLEELERLCREVFTHAPWRKFVLGVLRDDDVRPRLLVAPAAKAVHHAFVGGLVEHILSVTRLCLHLAEHYPELDRQALVAGAIFHDIGKVWELTGGLANDYSDEGRLLGHIHIGLERIEPHLRKSGLEPELVMHFKHLILSHHGELEYGSPKRPKTAEAMVLHYADNIDAKMAQMRGLFANMGEGETGWSPYQNTLQRFLYRPARTPEPVATTRRRRGTPEVEQCSLLSKA
result: not soluble

sequence.code: MEDPLGRLEWIKFLSAFYDKEDKAENYFNQQVSKVMATENKVSSLKKPKVAFGMVDNGKVYIPAKNSYAAKMVDMAGGDYIFKDLNNKSGYITLEDFYSKSKDADVLIYSSSKEYTPSLKSMLSAAPILKTIKPVKNKKVWCFGKDYYQAIDKTDEIIEDLASIFHPESFKGLEHHHHHH
result: not soluble
